All figures here come from paper PMC5540273.

Test system: PRKD2;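 note: KINOMEscan kinase panel screen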
Settings: concentration: 1 μM, replicates: in singlicate; n = 1
Readings of %Inh for the listed molecules
// note: answer is a bare numeric in %

Some entries whose results are on file:
- smiles-record: "Nc1nc(N)c2nc(-c3ccccc3)[nH]c2n1"
  recorded-result: 9
- smiles-record: "Cn1c(=O)c(F)c(Nc2ccc(I)cc2F)c2c(=O)n(OC[C@H](O)CO)cnc21"
  recorded-result: 0
- smiles-record: "COc1cc(OC)cc(-c2cc3cnc(N)nc3nc2NC(=O)NC(C)(C)C)c1"
  recorded-result: 0
- smiles-record: "Cc1nn2c(=O)cc(N3CCOCC3)nc2n1Cc1cccc(Cl)c1Cl"
  recorded-result: 0

Given the entry `CCC(=O)c1c(-c2ccccc2)c2cc(Cl)ccc2c(=O)n1Cc1cc(C(=O)NC2CC2)n(C)n1` , report its measured %Inh. 3
